Reported pKi values for the following compounds.
# measured.target: EhiCA (Entamoeba histolytica)
# Construct: gene EHI_073380; His-tag cleaved with thrombin; 21 kDa (21/25 kDa doublet); one Zn per chain; Zn ligands Cys50, His103, Cys106, dyad Asp52-Arg54; dimer and trimer seen on SDS-PAGE
# Sequence (C4LXK3 1-188): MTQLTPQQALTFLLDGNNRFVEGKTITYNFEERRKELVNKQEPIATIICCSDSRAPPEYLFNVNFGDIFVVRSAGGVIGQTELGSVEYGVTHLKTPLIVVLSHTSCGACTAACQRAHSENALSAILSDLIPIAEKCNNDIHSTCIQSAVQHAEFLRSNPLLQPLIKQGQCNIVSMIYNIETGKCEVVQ
# experiment: biochemical
pKi: −log10 of the molar value.
value.kind: pKi

[[record]]
structure_smiles_string = "O=S(=O)(O)O"
qualifier_operator = "="
test_value = 1.67

[[record]]
structure_smiles_string = "I"
qualifier_operator = "="
test_value = 2.13

[[record]]
structure_smiles_string = "N#CS"
qualifier_operator = "="
test_value = 2.10

[[record]]
structure_smiles_string = "O=P(O)(O)OP(=O)(O)O"
qualifier_operator = "<"
test_value = 1.00


----------
# measured.target: EhiCA (Entamoeba histolytica, UniProt C4LXK3)
# Construct: gene EHI_073380; His-tag cleaved with thrombin; 21 kDa (21/25 kDa doublet); one Zn per chain; Zn ligands Cys50, His103, Cys106, dyad Asp52-Arg54; dimer and trimer seen on SDS-PAGE
# experiment: biochemical
# measurement.setup: read-out: KI [mM] ^#
Reported Ki values for the following compounds.
value.kind: Ki (mM)

[[record]]
compound = "O=[N+]([O-])O [NO3^−]"
value_kind = "Ki"
qualifier_operator = "="
test_value = 3.6

[[record]]
compound = "O=S(=O)(O)OOS(=O)(=O)O [S2O8^2−]"
value_kind = "Ki"
qualifier_operator = "="
test_value = 8.4

[[record]]
compound = "[O]=[V]([OH])([OH])[O][V](=[O])([OH])[OH] [V2O7^4−]"
value_kind = "Ki"
qualifier_operator = ">"
test_value = 100

[[record]]
compound = "Br [Br^−]"
value_kind = "Ki"
qualifier_operator = "="
test_value = 36.8

[[record]]
compound = "S=C(S)S [CS3^2−]"
value_kind = "Ki"
qualifier_operator = "="
test_value = 6

[[record]]
compound = "N#C[SeH] [SeCN^−]"
value_kind = "Ki"
qualifier_operator = "="
test_value = 0.87

[[record]]
compound = "NS(=O)(=O)O [H2NSO3H]"
value_kind = "Ki"
qualifier_operator = ">"
test_value = 100

[[record]]
compound = "[O-][Cl+3]([O-])([O-])O [ClO4^−]"
value_kind = "Ki"
qualifier_operator = ">"
test_value = 100

[[record]]
compound = "F[B-](F)(F)F [BF4^−]"
value_kind = "Ki"
qualifier_operator = ">"
test_value = 100

[[record]]
compound = "CCN(CC)C(=S)S [Et2NCS2^−]"
value_kind = "Ki"
qualifier_operator = "="
test_value = 0.51

[[record]]
compound = "OB(O)c1ccccc1 [Ph-B(OH)2]"
value_kind = "Ki"
qualifier_operator = "="
test_value = 0.047

[[record]]
compound = "NS(N)(=O)=O [H2NSO2NH2]"
value_kind = "Ki"
qualifier_operator = "="
test_value = 0.028

[[record]]
compound = "O=[Se](=O)(O)O [SeO4^2−]"
value_kind = "Ki"
qualifier_operator = "="
test_value = 6

[[record]]
compound = "N#CO [CNO^−]"
value_kind = "Ki"
qualifier_operator = "="
test_value = 0.77

[[record]]
compound = "O=S(=O)(O)NS(=O)(=O)O [NH(SO3)2^2−]"
value_kind = "Ki"
qualifier_operator = "="
test_value = 2.2

[[record]]
compound = "[O]=[Ru](=[O])(=[O])[OH] [RuO4^−]"
value_kind = "Ki"
qualifier_operator = "="
test_value = 7

[[record]]
compound = "O=S(O)O [HSO3^−]"
value_kind = "Ki"
qualifier_operator = "="
test_value = 11.5

[[record]]
compound = "S [HS^−]"
value_kind = "Ki"
qualifier_operator = "="
test_value = 6.9

[[record]]
compound = "F [F^−]"
value_kind = "Ki"
qualifier_operator = ">"
test_value = 100

[[record]]
compound = "O=[Te](=O)(O)O [TeO4^2−]"
value_kind = "Ki"
qualifier_operator = "="
test_value = 0.61

[[record]]
compound = "Cl [Cl^−]"
value_kind = "Ki"
qualifier_operator = ">"
test_value = 100

[[record]]
compound = "O=S(=O)(O)C(F)(F)F [CF3SO3^−]"
value_kind = "Ki"
qualifier_operator = ">"
test_value = 100

[[record]]
compound = "O=NO [NO2^−]"
value_kind = "Ki"
qualifier_operator = "="
test_value = 1.7

[[record]]
compound = "O=S(=O)(O)F [FSO3^−]"
value_kind = "Ki"
qualifier_operator = "="
test_value = 0.086

[[record]]
compound = "[O]=[Re](=[O])(=[O])[OH] [ReO4^−]"
value_kind = "Ki"
qualifier_operator = "="
test_value = 7.1

